target: SIK3 (Homo sapiens (Human)); assay: Percent activity against SIK3 at 1 μM; assay type: biochemical; details: 1 μM
Sequence (Q9Y2K2 whole entry): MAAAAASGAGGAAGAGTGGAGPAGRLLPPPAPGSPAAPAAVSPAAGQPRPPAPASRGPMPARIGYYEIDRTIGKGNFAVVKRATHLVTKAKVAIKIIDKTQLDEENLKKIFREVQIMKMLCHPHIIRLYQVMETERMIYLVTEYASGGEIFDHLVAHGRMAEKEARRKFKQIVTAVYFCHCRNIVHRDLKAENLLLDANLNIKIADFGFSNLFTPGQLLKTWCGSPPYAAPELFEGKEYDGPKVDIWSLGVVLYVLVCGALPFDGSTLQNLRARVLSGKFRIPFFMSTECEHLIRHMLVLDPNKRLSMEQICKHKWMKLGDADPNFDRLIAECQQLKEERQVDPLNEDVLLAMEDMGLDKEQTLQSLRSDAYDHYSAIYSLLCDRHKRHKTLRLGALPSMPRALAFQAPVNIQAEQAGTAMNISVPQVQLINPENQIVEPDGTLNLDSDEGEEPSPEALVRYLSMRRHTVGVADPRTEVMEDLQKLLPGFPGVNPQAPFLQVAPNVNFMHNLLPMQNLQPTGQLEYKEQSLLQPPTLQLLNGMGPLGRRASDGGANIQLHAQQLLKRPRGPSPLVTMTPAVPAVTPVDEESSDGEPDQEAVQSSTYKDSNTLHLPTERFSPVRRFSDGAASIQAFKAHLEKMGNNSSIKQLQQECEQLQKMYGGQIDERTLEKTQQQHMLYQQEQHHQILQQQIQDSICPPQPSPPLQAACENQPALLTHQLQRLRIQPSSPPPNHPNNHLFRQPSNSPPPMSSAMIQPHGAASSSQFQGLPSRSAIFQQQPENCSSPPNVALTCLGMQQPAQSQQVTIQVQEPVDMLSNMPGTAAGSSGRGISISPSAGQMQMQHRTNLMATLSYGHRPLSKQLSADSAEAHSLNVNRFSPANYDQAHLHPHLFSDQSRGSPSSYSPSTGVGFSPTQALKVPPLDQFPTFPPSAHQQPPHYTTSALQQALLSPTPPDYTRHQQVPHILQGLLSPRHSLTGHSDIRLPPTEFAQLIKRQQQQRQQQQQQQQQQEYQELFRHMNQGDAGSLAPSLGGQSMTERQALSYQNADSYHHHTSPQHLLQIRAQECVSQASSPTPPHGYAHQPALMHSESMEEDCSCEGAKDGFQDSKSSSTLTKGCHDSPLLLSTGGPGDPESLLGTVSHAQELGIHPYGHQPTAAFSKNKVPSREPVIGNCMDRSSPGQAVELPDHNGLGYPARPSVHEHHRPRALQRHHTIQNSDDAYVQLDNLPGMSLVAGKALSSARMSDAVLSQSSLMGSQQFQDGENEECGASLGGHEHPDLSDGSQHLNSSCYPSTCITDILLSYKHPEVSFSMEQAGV
READOUT NAME: Enzyme activity at 1 μM (%) SIK3
Enter your answer as a number in %; do not include the unit.

>  <QUERY SMILES>
COc1ccc(N2C(=O)N(c3c(C)cccc3C)Cc3cnc(Nc4cc(N5CCOCC5)cc(N5CCN(C)CC5)c4)nc32)c(OC)c1

>  <Enzyme activity at 1 μM (%) SIK3>
9.3

$$$$

Prompt: I have this molecule here, "COc1ccc(N2C(=O)N(c3c(C)cccc3C)Cc3cnc(Nc4ccc(N5CCN(C)CC5)cc4)nc32)c(OC)c1" , and I need its recorded Enzyme activity at 1 μM (%) SIK3.
Response: 9

Prompt: # query: Enzyme activity at 1 μM (%) SIK3 of entry "COc1ccc(N2C(=O)N(c3c(C)cccc3C)Cc3cnc(Nc4ccc(N5CCN(C)CC5)cc4OC)nc32)c(OC)c1"
Response: 7.5

Prompt: Field request: Enzyme activity at 1 μM (%) SIK3 | item: "CN1CCN(c2ccc(Nc3ncc4c(n3)N(C)C(=O)N(c3ccccc3)C4)cc2)CC1"
Response: 8.6

----------
target: SIK2 (Homo sapiens (Human)); assay: Percent activity against SIK2 at 1 μM; type: biochemical; settings: compound at 1 μM; approximate Km for ATP
Entries and their measured SIK2 % ACTIVITY follow.
Lab book: enter the figure in %, no units written.

Example entries and their recorded answers appear below.
>  <QUERY SMILES>
Cc1ccc(NC(=O)c2cccc(C(F)(F)F)c2)cc1N1Cc2cnc(Nc3ccc(N4CCN(C)CC4)cc3)nc2N(C)C1=O

>  <SIK2 % ACTIVITY / %>
7.0

$$$$
>  <QUERY SMILES>
CN1CCN(c2ccc(Nc3ncc4c(n3)N(C)C(=O)N(c3ccccc3)C4)cc2)CC1

>  <SIK2 % ACTIVITY / %>
1.4

$$$$
>  <QUERY SMILES>
COc1ccc(N2C(=O)N(c3c(C)cccc3C)Cc3cnc(Nc4cc(N5CCOCC5)cc(N5CCN(C)CC5)c4)nc32)c(OC)c1

>  <SIK2 % ACTIVITY / %>
4.3

$$$$
>  <QUERY SMILES>
COc1cc(N2CCN(C)CC2)ccc1Nc1ncc2c(n1)N(C)C(=O)N(c1ccccc1)C2

>  <SIK2 % ACTIVITY / %>
32.8

$$$$
>  <QUERY SMILES>
Cc1ccc(Nc2ncc3c(n2)N(C)C(=O)N(c2cc(NC(=O)c4cccc(C(F)(F)F)c4)ccc2C)C3)cn1

>  <SIK2 % ACTIVITY / %>
27.4

$$$$

Prompt: Which SIK2 % ACTIVITY is reported for this compound? "COc1ccc(N2C(=O)N(c3c(C)cccc3C)Cc3cnc(Nc4ccc(N5CCN(C)CC5)cc4)nc32)c(OC)c1"
Response: 2.8

Prompt: Which SIK2 % ACTIVITY is reported for this compound? "COc1ccc(N2C(=O)N(c3c(C)cccc3C)Cc3cnc(Nc4ccc(N5CCN(C)CC5)cc4OC)nc32)c(OC)c1"
Response: 2.1

----------
target: full length His6-MBP-tagged hSIK2 (Homo sapiens (Human), UniProt Q9H0K1)
Sequence (Q9H0K1 whole entry): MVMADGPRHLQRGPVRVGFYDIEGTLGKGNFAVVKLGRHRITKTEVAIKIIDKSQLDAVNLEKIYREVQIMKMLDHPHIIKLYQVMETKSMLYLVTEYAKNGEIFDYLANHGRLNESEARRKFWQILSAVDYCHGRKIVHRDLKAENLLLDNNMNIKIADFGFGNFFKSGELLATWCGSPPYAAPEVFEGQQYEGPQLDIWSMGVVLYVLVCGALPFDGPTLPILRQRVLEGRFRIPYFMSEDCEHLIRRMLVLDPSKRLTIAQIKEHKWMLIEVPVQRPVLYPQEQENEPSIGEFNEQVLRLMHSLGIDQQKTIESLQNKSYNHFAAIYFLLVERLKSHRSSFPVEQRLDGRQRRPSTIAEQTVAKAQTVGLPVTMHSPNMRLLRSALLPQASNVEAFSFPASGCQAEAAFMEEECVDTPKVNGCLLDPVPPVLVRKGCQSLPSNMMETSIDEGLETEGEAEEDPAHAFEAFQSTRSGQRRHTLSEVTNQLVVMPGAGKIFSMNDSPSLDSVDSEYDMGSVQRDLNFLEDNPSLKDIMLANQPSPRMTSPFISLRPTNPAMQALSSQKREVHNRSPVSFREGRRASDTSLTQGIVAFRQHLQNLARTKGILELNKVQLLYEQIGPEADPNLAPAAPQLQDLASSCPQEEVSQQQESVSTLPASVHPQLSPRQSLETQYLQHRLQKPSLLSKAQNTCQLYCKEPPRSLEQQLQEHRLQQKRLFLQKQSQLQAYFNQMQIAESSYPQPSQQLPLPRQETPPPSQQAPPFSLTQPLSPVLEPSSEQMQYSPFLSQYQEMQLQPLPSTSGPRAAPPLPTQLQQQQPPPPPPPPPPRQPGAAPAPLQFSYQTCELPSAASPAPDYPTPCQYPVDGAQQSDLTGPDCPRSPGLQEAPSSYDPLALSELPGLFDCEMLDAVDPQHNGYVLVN
READOUT NAME: pIC50
Please keep in mind that pIC50 is minus log10 of the molar concentration; only the number is needed.

Prompt: Request - read-out pIC50 | tested on full length His6-MBP-tagged hSIK2 (Homo sapiens (Human), UniProt Q9H0K1) | compound COc1ccc(N2C(=O)N(c3c(C)cccc3Cl)Cc3cnc(Nc4ccc(N5CCN(C)CC5)cc4)nc32)nc1 [YKL-05-95]
Response: 8.22

----------
target: UniProtKB Q9H0K1; assay: Percent activity against SIK2 at 1 μM; assay type: biochemical; conditions: 1 μM
READOUT NAME: Enzyme activity at 1 μM (%) SIK2
Respond with the bare value in %.

The cases that follow already have their Enzyme activity at 1 μM (%) SIK2 on record.
>  <QUERY SMILES>
Cc1ccc(NC(=O)c2cccc(C(F)(F)F)c2)cc1N1Cc2cnc(Nc3ccc(N4CCN(C)CC4)cc3)nc2N(C)C1=O

>  <VALUE REPORTED>
7

$$$$
>  <QUERY SMILES>
COc1ccc(N2C(=O)N(c3c(C)cccc3C)Cc3cnc(Nc4ccc(N5CCN(C)CC5)cc4OC)nc32)c(OC)c1

>  <VALUE REPORTED>
2.1

$$$$
>  <QUERY SMILES>
CN1CCN(c2ccc(Nc3ncc4c(n3)N(C)C(=O)N(c3ccccc3)C4)cc2)CC1

>  <VALUE REPORTED>
1.4

$$$$
>  <QUERY SMILES>
COc1ccc(N2C(=O)N(c3c(C)cccc3C)Cc3cnc(Nc4cc(N5CCOCC5)cc(N5CCN(C)CC5)c4)nc32)c(OC)c1

>  <VALUE REPORTED>
4.3

$$$$

Prompt: I'd like to know its Enzyme activity at 1 μM (%) SIK2. The compound in question is "COc1ccc(N2C(=O)N(c3c(C)cccc3C)Cc3cnc(Nc4ccc(N5CCN(C)CC5)cc4)nc32)c(OC)c1"
Response: 2.8

----------
assay: qAC50 biological assay (Table 4); details: curve direction of qAC50 data
READOUT NAME: Data Mode

>  <COMPOUND>
COc1ccc(N2C(=O)N(c3c(C)cccc3C)Cc3cnc(Nc4cc(N5CCOCC5)cc(N5CCN(C)CC5)c4)nc32)c(OC)c1 [HG-11-143-01]

>  <Data Mode>
decreasing

$$$$
>  <COMPOUND>
Cc1ccc(NC(=O)c2cccc(C(F)(F)F)c2)cc1N1Cc2cnc(Nc3ccc(N4CCN(C)CC4)cc3)nc2N(C)C1=O [HG-11-23-01]

>  <Data Mode>
decreasing

$$$$
>  <COMPOUND>
COc1ccc(N2C(=O)N(c3c(C)cccc3C)Cc3cnc(Nc4ccc(N5CCN(C)CC5)cc4)nc32)c(OC)c1 [HG-11-136-01]

>  <Data Mode>
decreasing

$$$$
>  <COMPOUND>
COc1cc(N2CCN(C)CC2)ccc1Nc1ncc2c(n1)N(C)C(=O)N(c1ccccc1)C2 [HG-11-139-02]

>  <Data Mode>
increasing

$$$$
>  <COMPOUND>
CN1CCN(c2ccc(Nc3ncc4c(n3)N(C)C(=O)N(c3ccccc3)C4)cc2)CC1 [HG-11-137-01]

>  <Data Mode>
increasing

$$$$

Now for another entry.
Prompt: Entry COc1ccc(N2C(=O)N(c3c(C)cccc3C)Cc3cnc(Nc4ccc(N5CCN(C)CC5)cc4OC)nc32)c(OC)c1 [HG-11-139-01] has what Data Mode?
Response: increasing

----------
molecular target: SIK1 (Homo sapiens (Human)); experiment: Percent activity against SIK1 at 1 μM; format: biochemical; conditions: compound at 1 μM; approximate Km for ATP
Sequence (P57059 whole entry): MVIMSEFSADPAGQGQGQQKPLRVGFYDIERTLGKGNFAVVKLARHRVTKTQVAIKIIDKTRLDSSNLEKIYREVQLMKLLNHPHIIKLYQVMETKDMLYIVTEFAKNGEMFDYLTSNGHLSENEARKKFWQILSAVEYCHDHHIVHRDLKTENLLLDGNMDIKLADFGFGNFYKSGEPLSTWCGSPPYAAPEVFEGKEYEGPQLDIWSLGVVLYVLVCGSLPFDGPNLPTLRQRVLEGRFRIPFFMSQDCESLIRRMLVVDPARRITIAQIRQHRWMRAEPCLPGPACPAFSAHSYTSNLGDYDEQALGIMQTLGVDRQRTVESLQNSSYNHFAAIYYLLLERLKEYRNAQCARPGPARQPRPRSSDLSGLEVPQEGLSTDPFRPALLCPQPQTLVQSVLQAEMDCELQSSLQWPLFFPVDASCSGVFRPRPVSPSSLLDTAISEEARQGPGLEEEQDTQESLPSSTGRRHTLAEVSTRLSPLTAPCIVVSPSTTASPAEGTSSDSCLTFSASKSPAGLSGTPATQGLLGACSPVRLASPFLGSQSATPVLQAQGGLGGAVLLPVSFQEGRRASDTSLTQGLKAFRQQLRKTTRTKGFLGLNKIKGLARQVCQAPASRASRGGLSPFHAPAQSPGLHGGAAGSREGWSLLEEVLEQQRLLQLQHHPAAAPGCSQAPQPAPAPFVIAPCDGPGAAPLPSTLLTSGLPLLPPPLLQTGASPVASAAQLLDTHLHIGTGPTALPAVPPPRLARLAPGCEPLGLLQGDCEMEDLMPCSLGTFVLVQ
Overview of recorded SIK1 % ACTIVITY for various molecules
Use % as the unit, but write only the number.

Worked examples follow.
>  <QUERY SMILES>
CN1CCN(c2ccc(Nc3ncc4c(n3)N(C)C(=O)N(c3ccccc3)C4)cc2)CC1

>  <SIK1 % ACTIVITY [%]>
12.9

$$$$
>  <QUERY SMILES>
COc1cc(N2CCN(C)CC2)ccc1Nc1ncc2c(n1)N(C)C(=O)N(c1ccccc1)C2

>  <SIK1 % ACTIVITY [%]>
36.0

$$$$
>  <QUERY SMILES>
Cc1ccc(Nc2ncc3c(n2)N(C)C(=O)N(c2cc(NC(=O)c4cccc(C(F)(F)F)c4)ccc2C)C3)cn1

>  <SIK1 % ACTIVITY [%]>
12.0

$$$$
>  <QUERY SMILES>
COc1ccc(N2C(=O)N(c3c(C)cccc3C)Cc3cnc(Nc4ccc(N5CCN(C)CC5)cc4)nc32)c(OC)c1

>  <SIK1 % ACTIVITY [%]>
19.1

$$$$
>  <QUERY SMILES>
COc1ccc(N2C(=O)N(c3c(C)cccc3C)Cc3cnc(Nc4cc(N5CCOCC5)cc(N5CCN(C)CC5)c4)nc32)c(OC)c1

>  <SIK1 % ACTIVITY [%]>
7.9

$$$$

Prompt: Requested read-out SIK1 % ACTIVITY, target or system SIK1 (Homo sapiens (Human)), entry "COc1ccc(N2C(=O)N(c3c(C)cccc3C)Cc3cnc(Nc4ccc(N5CCN(C)CC5)cc4OC)nc32)c(OC)c1"
Response: 15.3

Prompt: Please tell me: SIK1 % ACTIVITY of "Cc1ccc(NC(=O)c2cccc(C(F)(F)F)c2)cc1N1Cc2cnc(Nc3ccc(N4CCN(C)CC4)cc3)nc2N(C)C1=O" , system SIK1 (Homo sapiens (Human))?
Response: 12.5

----------
assay: Viability loss (Table 4); type: cell-based
Each entry below carries its recorded Viability loss AC40.
Give just the numeric value; µM need not be written.

>  <QUERY SMILES>
COc1ccc(N2C(=O)N(c3c(C)cccc3C)Cc3cnc(Nc4ccc(N5CCN(C)CC5)cc4)nc32)c(OC)c1

>  <READOUT NAME>
Viability loss AC40

>  <VALUE REPORTED>
0.097

$$$$
>  <QUERY SMILES>
Cc1ccc(NC(=O)c2cccc(C(F)(F)F)c2)cc1N1Cc2cnc(Nc3ccc(N4CCN(C)CC4)cc3)nc2N(C)C1=O

>  <READOUT NAME>
Viability loss AC40

>  <VALUE REPORTED>
0.106

$$$$
>  <QUERY SMILES>
COc1ccc(N2C(=O)N(c3c(C)cccc3C)Cc3cnc(Nc4ccc(N5CCN(C)CC5)cc4OC)nc32)c(OC)c1

>  <READOUT NAME>
Viability loss AC40

>  <VALUE REPORTED>
8.91

$$$$

Consider now this further compound.
Prompt: Which Viability loss AC40 is listed for "CN1CCN(c2ccc(Nc3ncc4c(n3)N(C)C(=O)N(c3ccccc3)C4)cc2)CC1" ?
Response: 6.96
